tested on: P. aeruginosa (CCUG #59347); assay: Antibacterial activity against isolates (Omnilog, Biolog redox dye); assay type: cell-based, Pseudomonas aeruginosa; settings: Pseudomonas aeruginosa, CCUG59347; ca-MH broth, 24 h, 37 °C
result-type: pEC50
Give bare numbers, as −log10 of the molar value.

Some entries whose results are on file:
                                   compound  result_type  test_result
0  COc1cc(NC(=N)N)ccc1-c1ccc(-c2ccc(NC(=N)N)cc2OC)o1 [Compound 6]        pEC50         4.26
1  N=C(N)Nc1ccc(-c2ccc(C(=O)N3CCc4cc(NC(=N)N)ccc43)o2)c(Cl)c1 [Compound 16]        pEC50         4.74

Attention now turns to another entry.
Problem: Given the entry N=C(N)Nc1ccc(-c2ccc(-c3ccc(NC(=N)N)cc3)o2)cc1 [Compound 3] , report its measured pEC50.
Result: 5.28

====

tested on: B. subtilis (NBRC/ATCC #111470); assay: Antibacterial resazurin assay, laboratory strain; conditions: Bacillus subtilis, ATCC111470, 18 h, read-out: Bsu EC90
Assignment: determine reported EC90 for the given compounds.
Answers are plain numbers, in µM.

Worked cases, EC90 given:
In [3]: df
Out[3]:
                  compound_structure_string  result_type  test_result
0  N=C(N)Nc1ccc(-c2ccc(-c3ccc(NC(=N)N)cc3Cl)o2)c(Cl)c1         EC90          136
1  COC(=O)c1cc(NC(=N)N)ccc1-c1ccc(-c2ccc(NC(=N)N)cc2C(=O)OC)o1         EC90         43.6

Continue with the next compound.
Problem: // EC90 lookup, key: `Cc1nc(NC(=N)N)ccc1-c1ccc(-c2ccc(NC(=N)N)nc2C)o1`
Result: 246

====

Field: pEC50. Provide a value for each of the compounds that follow.
system: E. hormaechei (CCUG #58962); assay: Antibacterial activity against isolates (Omnilog, Biolog redox dye); format: cell-based, Enterobacter hormaechei; conditions: Enterobacter hormaechei, CCUG58962; ca-MH broth, 24 h, 37 °C
One number for each entry, as −log10 of the molar value.

Reference set, count: 6
In [3]: df
Out[3]:
                                   compound  result_type  test_result
0  CO/N=C(\C(=O)N[C@@H]1C(=O)N2C(C(=O)O)=C(COC(C)=O)CS[C@H]12)c1csc(N)n1 [CTX, Cefotaxime, reference compound]        pEC50         4.11
1  Cc1cc(NC(=N)N)ccc1-c1ccc(-c2ccc(NC(=N)N)cc2C)o1        pEC50         4.66
2  N=C(N)Nc1ccc(-c2ccc(-c3ccc(NC(=N)N)cc3Cl)o2)c(Cl)c1        pEC50         5.11
3  COc1cc(NC(=N)N)ccc1-c1ccc(-c2ccc(NC(=N)N)cc2OC)o1        pEC50         4.80
4  COC(=O)c1cc(NC(=N)N)ccc1-c1ccc(-c2ccc(NC(=N)N)cc2C(=O)OC)o1        pEC50         5.08
5  N=C(N)Nc1ccc(-c2ccc(C(=O)N3CCc4cc(NC(=N)N)ccc43)o2)c(Cl)c1        pEC50         4.90

Next up:
Problem: Test system E. hormaechei (CCUG #58962); read-out pEC50; what value for `N=C(N)Nc1ccc(-c2ccc(-c3ccc(NC(=N)N)cc3)o2)cc1` ?
Result: 5.12
